experiment: Cytotoxicity against human MT4 cells by MTT method; assay type: cell-based
readoutName: log10 CC50 (log10 of the value in µM)
In our notation, the value equals log10 of CC50 in µM.

Which measured log10 CC50 value corresponds to O=C1NC(=S)S/C1=C\c1ccc(-c2cc(C(=O)O)cc(O)c2O)o1 ? 2.12

Consider the molecule Cc1nnc(C(=O)NC(C)(C)c2nc(C(=O)NCc3ccc(F)cc3)c(O)c(=O)n2C)o1 and give its measured log10 CC50. 2.16

Please look up its log10 CC50: O=C1NC(=S)NC(=O)C1=Cc1ccc(-c2cccc(C(=O)O)c2O)o1 2.15

Give its log10 CC50 value. Item: O=C1NC(=S)NC(=O)C1=Cc1ccc(-c2ccc(F)cc2C(=O)O)o1 2.22

Bench note: what log10 CC50 did COc1cc(-c2ccc(C=C3C(=O)NC(=S)NC3=O)o2)c(Cl)cc1C(=O)O show? 2.00

Param item = Cc1ccc(C(=O)O)cc1-c1ccc(C=C2C(=O)NC(=S)NC2=O)o1 ; retrieve measured log10 CC50. 2.20

Given O=C1NC(=S)NC(=O)C1=Cc1ccc(-c2ccc(Cl)c(C(=O)O)c2)o1 , state its recorded log10 CC50. 2.18

Reported log10 CC50 for O=C1NC(=S)S/C1=C\c1ccc(-c2ccc(Cl)c(C(=O)O)c2)o1 : what is it? 2.19

Fill blank: measured log10 CC50 of the molecule O=C1NC(=S)N/C1=C\c1ccc(-c2ccc(O)c(C(=O)O)c2)o1 is ____. 2.18

Query (molecule): O=C1NC(=S)N/C1=C\c1ccc(-c2ccc(C(=O)O)c(O)c2)o1 ; field requested: log10 CC50 2.29

For the molecule O=C1NC(=S)NC(=O)C1=Cc1ccc(-c2cc(C(=O)O)cc(O)c2O)o1 , what log10 CC50 is on record? 2.14

Could you share which log10 CC50 value was measured for COc1cc(-c2ccc(/C=C3\SC(=S)NC3=O)o2)c(Cl)cc1C(=O)O ? 2.16

Using the record for Cc1c(-c2ccc(C=C3C(=O)NC(=S)NC3=O)o2)cccc1[N+](=O)[O-] , report its log10 CC50. 1.25

I would be grateful if you could share the reported log10 CC50 for O=C1NC(=S)NC(=O)C1=Cc1ccc(-c2ccc(C(=O)O)c(O)c2)o1 . 1.78

Record request: log10 CC50 value, item COc1cc(C(=O)O)cc(OC)c1-c1ccc(C=C2C(=O)NC(=S)NC2=O)o1 1.79

Which value of log10 CC50 has been reported for O=C1NC(=S)NC(=O)C1=Cc1ccc(-c2ccc(O)c(C(=O)O)c2)o1 in the records? 2.35

###

Could you please report measured pIC50 for the items listed next?
target: Human immunodeficiency virus type 1 integrase (Human immunodeficiency virus 1, UniProt Q7ZJM1); assay: Inhibition of HIV1 integrase strand transfer activity using labelled oligonucleotide substrate by ELISA
Sequence (Q7ZJM1 whole entry): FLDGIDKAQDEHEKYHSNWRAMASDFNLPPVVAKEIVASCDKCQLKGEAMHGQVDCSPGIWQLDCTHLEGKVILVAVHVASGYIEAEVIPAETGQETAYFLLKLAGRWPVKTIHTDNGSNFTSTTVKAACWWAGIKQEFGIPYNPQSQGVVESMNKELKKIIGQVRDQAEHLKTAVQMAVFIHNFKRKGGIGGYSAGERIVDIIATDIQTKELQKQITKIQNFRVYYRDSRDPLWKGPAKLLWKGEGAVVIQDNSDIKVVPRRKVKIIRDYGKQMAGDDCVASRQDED
Lab note — pIC50 values are minus log10 of concentrations in M.

// lookup pIC50 for O=C1NC(=S)NC(=O)C1=Cc1ccc(-c2ccc(C(=O)O)c(O)c2)o1 4.16

GET /values?readout=pIC50&item= O=C1NC(=S)S/C1=C\c1ccc(-c2cc(C(=O)O)cc(O)c2O)o1 3.79

Fill in: pIC50 of O=C1NC(=S)S/C1=C\c1ccc(-c2ccc(C(=O)O)c(O)c2)o1 is ___ 4.01

###

Assignment: determine reported selectivity ratio for the given compounds.
test: Therapeutic index, ratio of CC50 for human MT4 cells to EC50 for HIV1 3B; format: cell-based; details: read-out: Ratio CC50/EC50

State the recorded selectivity ratio for this entry: O=C1NC(=S)NC(=O)C1=Cc1ccc(-c2cc(C(=O)O)cc(O)c2O)o1 3

Item under review: O=C1NC(=S)S/C1=C\c1ccc(-c2ccc(C(=O)O)c(O)c2)o1 . Reported selectivity ratio? 2

GET /values?readout=selectivity ratio&item= O=C1NC(=S)N/C1=C\c1ccc(-c2ccc(O)c(C(=O)O)c2)o1 2

What does the record list as selectivity ratio for O=C1NC(=S)S/C1=C\c1ccc(-c2cc(C(=O)O)cc(O)c2O)o1 ? 7

Bench note: what selectivity ratio did O=C1NC(=S)NC(=O)C1=Cc1ccc(-c2ccc(C(=O)O)c(O)c2)o1 show? 2

###

assay: Cytotoxicity against human MT4 cells by MTT method; assay type: cell-based
readoutName: CC50

Need CC50 of O=C1NC(=S)S/C1=C\c1ccc(-c2ccc(C(=O)O)c(O)c2)o1 , thanks. > 72 µM

Please report the recorded CC50 for COc1cc(-c2ccc(C(=O)O)c(O)c2)oc1/C=C1\SC(=S)NC1=O . > 125 µM

State the recorded CC50 for this entry: O=C1NC(=S)NC(=O)C1=Cc1ccc(-c2cc(C(=O)O)cc3c2OCO3)o1 > 125 µM

// CC50 lookup, key: Cc1cc(-c2ccc(C(=O)O)c(O)c2)oc1C=C1C(=O)NC(=S)NC1=O > 125 µM
